Origin of values: ChEMBL document CHEMBL1201862

Tested on: HCT-116
EXPERIMENT SUMMARY: NCI tumour cell line growth inhibition, 48 h
The source made the active and inactive calls. Cut-off read from the data, not from the text of the source: active = GI50 up to about 1.1 µM and inactive = higher.
ASSAY ENDPOINT: GI50

INSERT INTO assay_data (compound, measurement_target, measured_result) VALUES
  ('COC(=O)CCC(C)[C@H]1CCC2C3C(C[C@H](OC(C)=O)[C@@]21C)[C@@]1(C)CCC2(C[C@H]1C[C@H]3OC(C)=O)OOC1(CCC(C(C)(C)C)CC1)OO2 (stereo not given in full)', 'HCT-116', '3.97 µM (inactive)'),
  ('Oc1ccc(Cl)cc1C1=Nn2c(COc3ccc4c(c3)CCCC4)nnc2SC1', 'HCT-116', '6.56 µM (inactive)'),
  ('COc1cc(N(CCC#N)CCC#N)ccc1C(=N/NC(=O)c1cc(Br)ccc1O)/N=N/c1ccccc1', 'HCT-116', '21.5 µM (inactive)'),
  ('COc1ccccc1/C=C1\C(=O)N(C(=O)c2ccc(NC(C)=O)cc2)N=C1C', 'HCT-116', '> 100 µM (inactive)'),
  ('O=C1Nc2ccccc2/C1=N/Nc1nc(-c2ccc(Cl)c(Cl)c2)cs1', 'HCT-116', '90.6 µM (inactive)'),
  ('CS(=O)(=O)c1nc(-c2cc3c(c(S(C)(=O)=O)n2)CCC3)cc2c1CCCC2', 'HCT-116', '> 100 µM (inactive)'),
  ('COc1cc(/C=C(\OC(C)=O)c2ccc3c(c2)OCO3)cc(OC)c1OC', 'HCT-116', '18.2 µM (inactive)'),
  ('CC1(C)Cc2cc(C(=O)O)c3c(c2C1=O)COCC3', 'HCT-116', '> 100 µM (inactive)'),
  ('O=C(CC1C(=O)Nc2ccccc2[S+]1[O-])Nc1cc(Cl)ccc1Cl (stereo not given)', 'HCT-116', '> 100 µM (inactive)'),
  ('C=C1C(=O)O[C@H]2C[C@@H]1[C@@H](O)[C@H](O)[C@@H](C)CCCC(C)=CCC[C@@]2(C)O', 'HCT-116', '16.1 µM (inactive)'),
  ('CCOc1nc(OCC)nc(-c2cccn2-c2ccccc2)n1', 'HCT-116', '37.3 µM (inactive)'),
  ('S=C1SCN(C2CCCCCCCCCCC2)CN1C1CCCCCCCCCCC1', 'HCT-116', '> 100 µM (inactive)'),
  ('CCOc1ccc(OP2(=O)NC(=O)C=C(C)N2)cc1 (stereo not given)', 'HCT-116', '> 100 µM (inactive)'),
  ('COc1c(O)c(OC)c2oc(-c3ccc(O)cc3)c(OC)c(=O)c2c1O', 'HCT-116', '46.3 µM (inactive)'),
  ('c1ccc(-c2cc(-c3ccccc3)nc(-c3ccncc3)c2)cc1', 'HCT-116', '48.8 µM (inactive)');

====

Below: a set of entries, each annotated with reported GI50.
Test system: SN12C
EXPERIMENT SUMMARY: NCI tumour cell line growth inhibition, 48 h
Calls of active or inactive are those of the source. Cut-off read from the data, not from the text of the source: active = GI50 up to about 1.1 µM and inactive = higher.
ASSAY ENDPOINT: GI50

INSERT INTO measurements (molecule, measurement_target, assay_endpoint, measured_result) VALUES
  ('CC(C)(C)n1[nH]c(=O)n(C(C)(C)C)c1=O', 'SN12C', 'GI50', '> 100 µM (inactive)'),
  ('CC(=O)C1C(=O)C(=O)N(c2ccc([N+](=O)[O-])cc2Cl)C1=O (stereo not given)', 'SN12C', 'GI50', '> 100 µM (inactive)'),
  ('C(=C/CCCN1O[C@@H](CCCCCCCCc2cccnc2)[C@H]2CCC[C@H]21)/CCCCCCCCCc1cccnc1', 'SN12C', 'GI50', '19.7 µM (inactive)'),
  ('NNC(=O)C(=O)N/N=C(\CCCC(=O)Nc1ccc(Cl)cc1)CC(=O)c1ccc(F)cc1', 'SN12C', 'GI50', '> 100 µM (inactive)'),
  ('C[n+]1c2ccccc2c(C(=O)Nc2ccc(S(=O)(=O)Nc3ccnn3-c3ccccc3)cc2)c2ccccc21', 'SN12C', 'GI50', '> 100 µM (inactive)');

====

Test system: PC-3
EXPERIMENT SUMMARY: NCI tumour cell line growth inhibition, 48 h
Calls of active or inactive are those of the source. Rule as the data show it: active = GI50 up to about 1.1 µM and inactive = higher.
Classes used: class 1 = active, class 0 = inactive

INSERT INTO measurements (compound, assigned_class) VALUES
  ('O=C1C(Br)=CC2(C=C1Br)CCNC1=C2C2=NCCc3c[nH]c(c32)C1=O', 'class 1'),
  ('COc1cc2cc(C(=O)N3CC(CCl)c4c3cc(N)c3ccccc43)[nH]c2c(OC)c1OC (stereo not given)', 'class 1'),
  ('Cc1ccc2[nH]/c(=N/S(=O)(=O)c3cc(C)c(Cl)cc3S)[nH]c2c1', 'class 0'),
  ('COC1CC(OC2C(C)OC(OC3C(C)OC(OC4C(O)CC(O[C@H]5CC[C@@]6(C)C(=CC[C@]7(O)[C@@H]6C[C@@H](OC(C)=O)[C@@]6(C)[C@]7(O)CC[C@@]6(O)C(C)=O)C5)OC4C)CC3OC)CC2OC)OC(C)C1O (stereo not given in full)', 'class 0'),
  ('CCn1c(SCC(=O)N/N=C2\SCC(=O)N2c2ccc(C)cc2)nc2ccccc2c1=O', 'class 0');
